Item-by-item account of 1H,1H CSPs [ppm] U11H5-H6
- Tested on: SL1 RNA
- EXPERIMENT SUMMARY: RNA-detected NMR binding site mapping (2D-1H,1H-TOCSY and 1D-1H)
- Parameters: species or system SARS-CoV-2
- CONDITION DETAILS: 2D TOCSY; RNA 150 μM, compound 1 mM, 298 K

- MOLECULE: "COc1ccc2nc(NC(=O)CN3CCC[C@H](N)C3)sc2c1 [A.36]"
  UNIT NAME: "ppm"
  1H,1H CSPs [ppm] U11H5-H6: 0.0063
- MOLECULE: "COc1ccc2nc(NC(=O)CN(C)C)sc2c1 [A.2]"
  UNIT NAME: "ppm"
  1H,1H CSPs [ppm] U11H5-H6: 0.0462
- MOLECULE: "COc1ccc(-c2nnc(NC(=O)CN(C)C)s2)cc1OC [A.31]"
  UNIT NAME: "ppm"
  1H,1H CSPs [ppm] U11H5-H6: 0.0256
- MOLECULE: "CC(=O)c1ccc(NC(=O)CN2CCCC2)cc1 [B]"
  UNIT NAME: "ppm"
  1H,1H CSPs [ppm] U11H5-H6: 0.0220
- MOLECULE: "CNC(=O)Nc1nc2c(OC)cc(OC)cc2s1 [A.11]"
  UNIT NAME: "ppm"
  1H,1H CSPs [ppm] U11H5-H6: 0.0311
- MOLECULE: "CNC(=O)Nc1nc2c(O)cc(O)cc2s1 [A.13]"
  UNIT NAME: "ppm"
  1H,1H CSPs [ppm] U11H5-H6: 0.0702
- MOLECULE: "CNC(=O)Nc1nc2ccc(OC)cc2s1 [A]"
  UNIT NAME: "ppm"
  1H,1H CSPs [ppm] U11H5-H6: 0.0824
- MOLECULE: "CNC(=N)Nc1nc2ccc(OC)cc2s1 [A.4]"
  UNIT NAME: "ppm"
  1H,1H CSPs [ppm] U11H5-H6: 0.0030
